Target: Organic anion transporter 3 (Homo sapiens)
Sequence (Q8TCC7 whole entry): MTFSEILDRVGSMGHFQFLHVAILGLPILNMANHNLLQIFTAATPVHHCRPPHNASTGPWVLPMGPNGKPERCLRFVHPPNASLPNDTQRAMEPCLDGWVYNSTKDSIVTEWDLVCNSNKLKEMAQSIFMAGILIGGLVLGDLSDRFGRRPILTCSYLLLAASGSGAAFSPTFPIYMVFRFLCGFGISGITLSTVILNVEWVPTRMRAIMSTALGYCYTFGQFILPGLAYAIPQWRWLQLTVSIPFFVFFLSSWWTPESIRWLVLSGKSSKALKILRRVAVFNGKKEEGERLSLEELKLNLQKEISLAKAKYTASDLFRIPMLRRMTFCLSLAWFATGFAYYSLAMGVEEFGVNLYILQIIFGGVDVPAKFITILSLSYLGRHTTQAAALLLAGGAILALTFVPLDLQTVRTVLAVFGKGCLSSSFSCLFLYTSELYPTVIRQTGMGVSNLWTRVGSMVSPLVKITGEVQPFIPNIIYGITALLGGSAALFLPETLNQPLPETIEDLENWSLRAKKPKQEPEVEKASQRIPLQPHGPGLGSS
Note to self: these molecules have IC50 reported for Organic anion transporter 3 (Homo sapiens) in various publications.
TEST_READOUT: IC50

> print(dat)
                            smiles.notation                              study.system  test.readout  test.result
1  O=C(O)Cn1c(=O)c(=O)[nH]c2cc([N+](=O)[O-])c(-n3ccnc3)cc21  Organic anion transporter 3 (Homo sapiens)          IC50       6.6 µM
2  CC(C)C[C@](C)(N)COc1ccc(-c2ccnc(C(F)F)c2)nc1C(F)F  Organic anion transporter 3 (Homo sapiens)          IC50      > 30 µM
3  CC(C)C[C@](C)(N)COc1cnc(-c2ccnc(C(F)F)c2)cc1C(F)F  Organic anion transporter 3 (Homo sapiens)          IC50      > 50 µM
